Molecular target: T1, Clostridium difficile toxin A (TcdA) (Clostridium difficile, UniProt P16154 1-2710)
T1 construct: mature; also called full-length TcdA
T1 sequence (P16154 whole entry): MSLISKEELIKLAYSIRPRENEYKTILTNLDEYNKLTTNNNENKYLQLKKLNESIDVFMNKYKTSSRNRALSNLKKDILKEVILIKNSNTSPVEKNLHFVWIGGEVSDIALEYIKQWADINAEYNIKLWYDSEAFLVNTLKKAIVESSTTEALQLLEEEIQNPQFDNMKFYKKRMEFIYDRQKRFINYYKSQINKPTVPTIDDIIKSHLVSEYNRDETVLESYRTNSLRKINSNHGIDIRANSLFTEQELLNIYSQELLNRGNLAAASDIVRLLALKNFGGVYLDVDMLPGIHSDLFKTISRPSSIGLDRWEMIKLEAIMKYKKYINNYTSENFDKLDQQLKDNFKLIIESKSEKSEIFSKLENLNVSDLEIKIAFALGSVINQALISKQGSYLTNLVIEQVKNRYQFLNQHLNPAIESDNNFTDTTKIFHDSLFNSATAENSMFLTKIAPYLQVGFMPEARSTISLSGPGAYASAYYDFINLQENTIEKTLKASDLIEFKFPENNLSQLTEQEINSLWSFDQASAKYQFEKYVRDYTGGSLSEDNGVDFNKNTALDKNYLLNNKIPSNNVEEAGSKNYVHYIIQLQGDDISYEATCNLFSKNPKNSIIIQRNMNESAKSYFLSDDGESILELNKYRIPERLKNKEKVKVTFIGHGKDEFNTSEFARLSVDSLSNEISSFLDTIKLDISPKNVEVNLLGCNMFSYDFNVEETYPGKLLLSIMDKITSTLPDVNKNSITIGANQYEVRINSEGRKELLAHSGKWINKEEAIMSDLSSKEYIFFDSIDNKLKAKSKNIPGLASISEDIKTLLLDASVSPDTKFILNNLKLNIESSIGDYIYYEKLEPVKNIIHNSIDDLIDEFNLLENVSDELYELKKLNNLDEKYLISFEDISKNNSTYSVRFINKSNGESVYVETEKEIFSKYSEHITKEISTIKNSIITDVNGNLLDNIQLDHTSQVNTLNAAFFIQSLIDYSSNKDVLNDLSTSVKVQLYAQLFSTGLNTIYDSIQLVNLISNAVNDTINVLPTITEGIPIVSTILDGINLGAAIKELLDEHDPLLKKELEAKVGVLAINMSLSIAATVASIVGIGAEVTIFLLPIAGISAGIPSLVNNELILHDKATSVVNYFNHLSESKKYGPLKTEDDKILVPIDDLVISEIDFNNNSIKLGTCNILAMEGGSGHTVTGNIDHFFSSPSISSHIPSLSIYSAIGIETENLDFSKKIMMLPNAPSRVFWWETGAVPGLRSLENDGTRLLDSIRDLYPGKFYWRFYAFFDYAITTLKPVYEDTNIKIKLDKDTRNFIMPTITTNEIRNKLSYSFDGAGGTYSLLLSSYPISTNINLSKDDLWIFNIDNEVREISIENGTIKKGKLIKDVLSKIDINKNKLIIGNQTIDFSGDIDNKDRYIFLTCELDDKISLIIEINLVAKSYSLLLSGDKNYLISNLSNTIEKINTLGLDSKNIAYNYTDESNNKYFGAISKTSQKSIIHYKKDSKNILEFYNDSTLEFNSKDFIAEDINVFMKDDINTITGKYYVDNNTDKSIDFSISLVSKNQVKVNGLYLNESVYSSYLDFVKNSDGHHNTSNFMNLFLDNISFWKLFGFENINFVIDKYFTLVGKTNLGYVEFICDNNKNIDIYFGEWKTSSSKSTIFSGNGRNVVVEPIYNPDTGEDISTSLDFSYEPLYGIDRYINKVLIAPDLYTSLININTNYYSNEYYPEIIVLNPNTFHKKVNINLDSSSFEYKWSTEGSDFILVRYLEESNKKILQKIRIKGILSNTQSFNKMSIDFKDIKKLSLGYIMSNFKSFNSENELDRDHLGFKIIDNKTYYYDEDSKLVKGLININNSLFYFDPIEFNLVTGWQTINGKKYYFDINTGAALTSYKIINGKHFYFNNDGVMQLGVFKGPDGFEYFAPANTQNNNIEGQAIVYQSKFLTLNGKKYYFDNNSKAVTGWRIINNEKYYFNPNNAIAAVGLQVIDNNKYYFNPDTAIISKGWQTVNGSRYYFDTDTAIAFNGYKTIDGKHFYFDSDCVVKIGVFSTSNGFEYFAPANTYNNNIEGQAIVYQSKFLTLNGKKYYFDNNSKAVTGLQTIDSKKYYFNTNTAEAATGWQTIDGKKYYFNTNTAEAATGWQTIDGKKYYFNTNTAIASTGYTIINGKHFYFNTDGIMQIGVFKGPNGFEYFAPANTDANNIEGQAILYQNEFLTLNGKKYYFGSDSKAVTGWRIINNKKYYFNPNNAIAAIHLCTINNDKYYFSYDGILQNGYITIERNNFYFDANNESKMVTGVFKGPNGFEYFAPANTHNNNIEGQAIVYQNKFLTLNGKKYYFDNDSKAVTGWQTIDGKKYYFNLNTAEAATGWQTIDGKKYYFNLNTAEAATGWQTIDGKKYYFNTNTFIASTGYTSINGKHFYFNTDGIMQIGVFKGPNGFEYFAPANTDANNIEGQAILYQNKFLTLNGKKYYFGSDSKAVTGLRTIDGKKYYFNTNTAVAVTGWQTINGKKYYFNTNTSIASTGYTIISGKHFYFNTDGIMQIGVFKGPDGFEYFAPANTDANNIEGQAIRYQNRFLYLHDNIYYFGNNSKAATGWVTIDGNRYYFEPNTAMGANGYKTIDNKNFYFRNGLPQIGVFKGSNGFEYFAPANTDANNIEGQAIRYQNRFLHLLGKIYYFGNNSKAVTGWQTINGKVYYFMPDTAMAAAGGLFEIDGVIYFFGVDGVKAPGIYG
Assay: SPR (Biacore 3000), VHH over immobilized TcdA, 1:1 fit
Property: kon (M⁻¹ s⁻¹)

{"Binder": "A26.8-T56R, Q101K, T103R (VHH, not shown: small tags and cut ends, also called lead triple mutant; best triple mutant) VHH: QVKLEESGGGLVQAGGSLRLSCAASERTFSRYPVAWFRQAPGAEREFVAVISSTGRSTYYADSVKGRFTISRDNAKVTVYLQMNNLKREDTAVYFCAVNSKRRRLQDPNEYDYWGQGTQVTVSS", "Display unit": "M⁻¹ s⁻¹", "Measured result": "1.23e+07"}
{"Binder": "A26.8 VHH mutant T54W (VHH, not shown: small tags and cut ends) VHH: QVKLEESGGGLVQAGGSLRLSCAASERTFSRYPVAWFRQAPGAEREFVAVISSWGTSTYYADSVKGRFTISRDNAKVTVYLQMNNLKREDTAVYFCAVNSQRTRLQDPNEYDYWGQGTQVTVSS", "Display unit": "M⁻¹ s⁻¹", "Measured result": "1.61e+06"}
{"Binder": "A26.8-T56I (VHH, not shown: small tags and cut ends) VHH: QVKLEESGGGLVQAGGSLRLSCAASERTFSRYPVAWFRQAPGAEREFVAVISSTGISTYYADSVKGRFTISRDNAKVTVYLQMNNLKREDTAVYFCAVNSQRTRLQDPNEYDYWGQGTQVTVSS", "Display unit": "M⁻¹ s⁻¹", "Measured result": "1.94e+06"}
{"Binder": "A26.8-Q101K,T103K (VHH, not shown: small tags and cut ends) VHH: QVKLEESGGGLVQAGGSLRLSCAASERTFSRYPVAWFRQAPGAEREFVAVISSTGTSTYYADSVKGRFTISRDNAKVTVYLQMNNLKREDTAVYFCAVNSKRKRLQDPNEYDYWGQGTQVTVSS", "Display unit": "M⁻¹ s⁻¹", "Measured result": "4.96e+06"}
{"Binder": "A26.8-T56R, Q101K, T103M (VHH, not shown: small tags and cut ends) VHH: QVKLEESGGGLVQAGGSLRLSCAASERTFSRYPVAWFRQAPGAEREFVAVISSTGRSTYYADSVKGRFTISRDNAKVTVYLQMNNLKREDTAVYFCAVNSKRMRLQDPNEYDYWGQGTQVTVSS", "Display unit": "M⁻¹ s⁻¹", "Measured result": "1.04e+07"}
{"Binder": "A26.8-Q101K,T103R (VHH, not shown: small tags and cut ends) VHH: QVKLEESGGGLVQAGGSLRLSCAASERTFSRYPVAWFRQAPGAEREFVAVISSTGTSTYYADSVKGRFTISRDNAKVTVYLQMNNLKREDTAVYFCAVNSKRRRLQDPNEYDYWGQGTQVTVSS", "Display unit": "M⁻¹ s⁻¹", "Measured result": "5.45e+06"}
{"Binder": "A26.8-T56R, T103K (VHH, not shown: small tags and cut ends) VHH: QVKLEESGGGLVQAGGSLRLSCAASERTFSRYPVAWFRQAPGAEREFVAVISSTGRSTYYADSVKGRFTISRDNAKVTVYLQMNNLKREDTAVYFCAVNSQRKRLQDPNEYDYWGQGTQVTVSS", "Display unit": "M⁻¹ s⁻¹", "Measured result": "8.61e+06"}
{"Binder": "A26.8-T54R (VHH, not shown: small tags and cut ends) VHH: QVKLEESGGGLVQAGGSLRLSCAASERTFSRYPVAWFRQAPGAEREFVAVISSRGTSTYYADSVKGRFTISRDNAKVTVYLQMNNLKREDTAVYFCAVNSQRTRLQDPNEYDYWGQGTQVTVSS", "Display unit": "M⁻¹ s⁻¹", "Measured result": "3.55e+06"}
